measured.target: Pol theta (1-899) (Homo sapiens)
Construct: Pol theta (1-899) (5 nM) in assay buffer
Sequence (O75417 1-899): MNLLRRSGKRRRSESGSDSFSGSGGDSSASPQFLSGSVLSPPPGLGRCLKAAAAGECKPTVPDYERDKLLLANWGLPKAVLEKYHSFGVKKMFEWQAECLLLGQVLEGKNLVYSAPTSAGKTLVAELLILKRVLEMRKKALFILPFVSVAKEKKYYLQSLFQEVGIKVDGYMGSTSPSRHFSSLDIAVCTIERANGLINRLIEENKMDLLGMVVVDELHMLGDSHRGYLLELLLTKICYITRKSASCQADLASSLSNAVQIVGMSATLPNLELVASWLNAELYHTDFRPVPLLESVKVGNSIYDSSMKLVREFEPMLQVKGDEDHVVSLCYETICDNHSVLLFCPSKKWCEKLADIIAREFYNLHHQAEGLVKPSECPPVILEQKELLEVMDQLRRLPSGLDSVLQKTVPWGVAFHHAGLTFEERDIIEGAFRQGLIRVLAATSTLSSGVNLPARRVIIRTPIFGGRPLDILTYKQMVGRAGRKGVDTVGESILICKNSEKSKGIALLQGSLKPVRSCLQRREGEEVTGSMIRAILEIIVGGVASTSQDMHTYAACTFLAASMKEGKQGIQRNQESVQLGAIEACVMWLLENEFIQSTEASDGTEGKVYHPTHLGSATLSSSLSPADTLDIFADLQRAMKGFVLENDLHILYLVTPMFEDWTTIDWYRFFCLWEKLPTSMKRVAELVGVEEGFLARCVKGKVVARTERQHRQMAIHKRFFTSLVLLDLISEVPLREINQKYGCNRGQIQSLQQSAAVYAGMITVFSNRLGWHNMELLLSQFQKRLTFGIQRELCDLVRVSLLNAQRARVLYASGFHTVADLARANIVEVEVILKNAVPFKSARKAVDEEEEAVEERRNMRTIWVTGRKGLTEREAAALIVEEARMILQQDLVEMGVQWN
protocol.summary: Pol theta ATPase activity, NADH oxidation-coupled enzymatic assay (ATPase NADH coupling: Standard Screening: hPolQ)
Type: biochemical
setup.conditions: Table 5; Pol theta (1-899) 5 nM, ATP, dT50 ssDNA
quantity.kind: IC50

Below, 3 molecules whose answers are already recorded.
[[record]]
molecule = "COc1cnc(Cl)cc1-c1cc(C)ncc1C(=O)Nc1nnc(O[C@H]2CCO[C@H]2C)s1 (racemic)"
assay_value = "0.2 to 0.5 µM"

[[record]]
molecule = "COc1cnc(Br)cc1-c1cc(C)ncc1C(=O)Nc1nnc(OC2COC2)s1"
assay_value = "≤ 0.2 µM"

[[record]]
molecule = "COc1cnc(Cl)cc1-c1cc(C)ncc1C(=O)Nc1nnc(O[C@@H]2CCC[C@H](O)C2)s1 (single isomer, unassigned)"
assay_value = "≤ 0.2 µM"


Kindly note the recorded IC50 for `COc1nnc(NC(=O)c2cnc(C)cc2-c2ccnc3ncnn23)s1` , which is 1 to 10 µM

Note to self: IC50 recorded for COc1cnc(Cl)c(F)c1-c1cc(C)ncc1C(=O)Nc1nnc(O[C@H]2CC[C@@H](O)C2)s1 (racemic) was ≤ 0.2 µM

Given item COc1cnc(Cl)cc1-c1cc(C)ncc1C(=O)Nc1nnc(O[C@@H]2CCC[C@@H](OC)C2)s1 (single isomer, unassigned) , the value recorded as its IC50 is ≤ 0.2 µM

For this molecule ( `Cc1cc(-c2cc(Cl)ncc2OC(F)F)c(C(=O)Nc2nnc(O[C@@H]3CCOC3)s2)cn1` ), measured IC50 is ≤ 0.2 µM
